Assay read-out IC50 on Polyamine deacetylase HDAC10 (Homo sapiens, UniProt Q969S8); records merged from the literature.

query_smiles	IC50
Br.CN(C)C(SCCCCCCn1cnc2c(-c3cc(Br)c(Br)[nH]3)nccc21)=[N+](C)C.[Cl-]	> 200 µM
CCCCN(Cc1ccc(C(=O)NO)cc1)C(=O)CCCCn1cc(COc2cccc(Cc3cnc(NC(=O)CSc4nc(C)cc(C)n4)s3)c2)nn1	> 6 µM
CS(=O)(=O)N(Cc1ccc(-c2nnc(C(F)(F)F)o2)cn1)c1cccc(Cl)c1	> 20 µM
